Each entry below carries its reported pKd.
Molecular target: T1, human ST2L extracellular domain with C-terminal His6 tag (human, UniProt Q01638 19-328)
T1 construct: also called huST2L-ECD; ST2L-ECD
T1 sequence: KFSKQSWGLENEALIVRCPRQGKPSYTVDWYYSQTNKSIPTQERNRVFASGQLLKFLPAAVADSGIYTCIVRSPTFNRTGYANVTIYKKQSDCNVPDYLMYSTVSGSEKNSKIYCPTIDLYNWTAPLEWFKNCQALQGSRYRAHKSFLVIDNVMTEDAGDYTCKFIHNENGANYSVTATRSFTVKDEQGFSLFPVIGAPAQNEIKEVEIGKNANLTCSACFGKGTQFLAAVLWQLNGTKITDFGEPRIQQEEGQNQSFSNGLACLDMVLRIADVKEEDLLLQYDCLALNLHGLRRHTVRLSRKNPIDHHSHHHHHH
Assay: SPR, mAb captured, ST2L-ECD in solution
Keep it numeric: pKd is minus log10 of the concentration in mol/L.

Solved entries (count: 2):
binder	pKd
STLM207 (antibody, V domains shown, frameworks VH3-23 / Vk-L6) VH: EVQLLESGGGLVQPGGSLRLSCAASGFTFSSYDMIWVRQAPGKGLEWVSTIRGEGGTTAYADSVKGRFTISRDNSKNTLYLQMNSLRAEDTAVYYCARDPWSTEGSFFVLDYWGQGTLVTVSS VL: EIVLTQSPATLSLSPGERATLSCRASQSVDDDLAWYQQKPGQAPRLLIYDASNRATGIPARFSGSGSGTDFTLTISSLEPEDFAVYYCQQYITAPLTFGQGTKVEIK	10.32
STLM124 (antibody, V domains shown, frameworks VH3-23 / Vk-L6) VH: EVQLLESGGGLVQPGGSLRLSCAASGFTFSIYDMIWVRQAPGKGLEWVSTIKGEGGGTYYADSVKGRFTISRDNSKNTLYLQMNSLRAEDTAVYYCARDPWSTEGSFFVLDYWGQGTLVTVSS VL: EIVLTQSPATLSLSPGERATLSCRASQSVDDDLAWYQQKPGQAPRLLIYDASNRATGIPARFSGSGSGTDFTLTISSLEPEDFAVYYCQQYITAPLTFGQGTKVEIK	10.34

# input for lookup
Input STLM217 (antibody, V domains shown, frameworks VH3-23 / Vk-L6) VH: EVQLLESGGGLVQPGGSLRLSCAASGFTFSVYDMFWVRQAPGKGLEWVSDIKGEGGETSYADSVKGRFTISRDNSKNTLYLQMNSLRAEDTAVYYCARDPWSTEGSFFVLDYWGQGTLVTVSS VL: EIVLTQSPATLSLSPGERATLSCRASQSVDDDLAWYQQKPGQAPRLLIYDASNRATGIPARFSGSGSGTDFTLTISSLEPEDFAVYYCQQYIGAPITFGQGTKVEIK . Output pKd: 10.77
